We begin with a simple list: items and their reported pIC50.
target: dopamine D-2 receptors in rat corpus striatum (Rattus norvegicus, UniProt P61169); assay: Inhibition of ^3H-spiperone (spiroperidol) binding to dopamine D-2 receptors in rat corpus striatum in vitro; settings: 0.5 nM ^3H-spiperone, rat striatum membranes, 37° C., 10 min
Sequence (P61169 whole entry): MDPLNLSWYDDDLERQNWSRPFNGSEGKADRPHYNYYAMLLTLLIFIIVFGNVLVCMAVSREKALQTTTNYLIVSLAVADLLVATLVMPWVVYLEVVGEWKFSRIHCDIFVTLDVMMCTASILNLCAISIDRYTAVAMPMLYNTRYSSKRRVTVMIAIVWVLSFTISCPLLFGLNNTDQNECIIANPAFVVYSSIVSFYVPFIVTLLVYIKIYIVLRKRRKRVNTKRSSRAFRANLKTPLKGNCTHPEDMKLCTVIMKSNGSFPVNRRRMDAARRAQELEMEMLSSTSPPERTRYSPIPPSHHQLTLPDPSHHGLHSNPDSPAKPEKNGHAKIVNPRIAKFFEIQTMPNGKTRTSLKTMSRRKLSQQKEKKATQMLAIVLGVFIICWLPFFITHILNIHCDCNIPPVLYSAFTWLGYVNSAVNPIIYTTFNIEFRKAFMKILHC
pIC50: −log10 of the molar value.

{"columns": ["compound", "assay_target", "pIC50"],
 "data": [
  ["Cc1c(-c2ccccc2)c2cc(Cl)ccc2n1C1CCN(C)CC1 [Compound 9b]", "dopamine D-2 receptors in rat corpus striatum (Rattus norvegicus, UniProt P61169)", 5.54],
  ["Cc1ccc2c(c1)c(-c1ccc(F)cc1)cn2C1CCN(CCNC(=S)N(C)C)CC1 [Compound 13a]", "dopamine D-2 receptors in rat corpus striatum (Rattus norvegicus, UniProt P61169)", 6.60],
  ["CC(C)N1CCN(CCN2CCC(n3cc(-c4ccccc4)c4cc(Cl)ccc43)CC2)C1=O [Compound 4q]", "dopamine D-2 receptors in rat corpus striatum (Rattus norvegicus, UniProt P61169)", 5.52],
  ["Cc1ccc2c(c1)c(-c1ccc(F)cc1)c(C)n2C1=CCN(CCN2CCNC2=O)CC1 [Compound 6a]", "dopamine D-2 receptors in rat corpus striatum (Rattus norvegicus, UniProt P61169)", 5.20]
]}
